- Assay Name: chemical genetic growth profiling, strain panel (AID 1159580);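 also: tested at 20 µM; growth read once vehicle control cultures reached saturation at 30 °C; 1 = growth at the plate median or of vehicle wells; lower values mean less growth of the strain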
- Study Conditions: S. cerevisiae deletion strains, growth OD, locus YOR329C, strain SCD5, hits give low values
Screen size: about 5,500 compounds; about 2,000 (36%) were called active. Roughly 18% stayed inconclusive and do not appear here. This is one part of the list.
Answer each item with its documented normalized growth.
Respond with the number and no other words.

Item under review: "CCOC(=O)c1ccc2nc(N=CNO)sc2c1" . Reported normalized growth?
0.947

Item under review: "O=C(/C=C/c1ccc2c(c1)OCO2)Nc1ccc(Br)cc1" . Reported normalized growth?
0.963

Item under review: "Cc1nn(C)c(C(=O)Sc2ccc(OC(F)(F)F)cc2)c1[N+](=O)[O-]" . Reported normalized growth?
0.982

Item under review: CC(C)(C)c1ccc(C(=N)SC(C(=O)C(F)(F)F)c2ccccc2)cc1 (centres undefined) . Reported normalized growth?
0.988

----------
- Assay Name: chemical genetic growth profiling, strain panel (AID 1159580);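 also: tested at 20 µM; growth read once vehicle control cultures reached saturation at 30 °C; 1 = growth at the plate median or of vehicle wells; lower values mean less growth of the strain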
- Study Conditions: S. cerevisiae deletion strains, growth OD, locus YHR030C, strain SLT2
About 2,000 (36%) of roughly 5,500 compounds were called active. Another 18% or so got no clear call; they are omitted. Cut-off read from the data, not from the text of the source: active = normalized growth mostly below about 0.91 (no sharp cut-off); inconclusive = no clear call, values can overlap the other calls; inactive = mostly above about 0.92. The list shows a part of the results.
Allowed answers: T (active), F (inactive)

Just curious, what result did "C=CCCCCCCCCCCCc1ccco1" get here?
F

Just curious, what result did "O=C(O)/C=C/c1ccc(O)c(O)c1" get here?
F

Just curious, what result did "Cc1c(C(=O)Sc2ccc(F)cc2F)sc2nc(C(F)(F)F)nn12" get here?
T

Just curious, what result did "Cc1ccc(-c2csc(CC#N)n2)cc1C" get here?
F

----------
- Assay Name: chemical genetic growth profiling, strain panel (AID 1159580);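 also: tested at 20 µM; growth read once vehicle control cultures reached saturation at 30 °C; 1 = growth at the plate median or of vehicle wells; lower values mean less growth of the strain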
- Study Conditions: S. cerevisiae deletion strains, growth OD, locus YBL061C, strain skt5, hits give low values
Out of some 5,500 compounds screened, about 2,000 (36%) were called active. About 18% were inconclusive and are not listed. Some of the results follow.
Assay Endpoint: normalized growth
Respond with the number and no other words.

Item under review: "OCCc1ccccc1" . Reported normalized growth?
0.985

Item under review: COc1ccc(OC)c(C(O)CNC(=O)CN)c1 (stereo unspecified) . Reported normalized growth?
1.01

Item under review: "O=C(O)CCCc1ccccc1" . Reported normalized growth?
0.991

Item under review: C=C[C@@](C)(O)CCC1C(=C)C[C@H](O)C2C(C)(C)CCCC12C (stereo partly specified) . Reported normalized growth?
0.988

Item under review: "O=C(O)CCCc1ccc(N(CCCl)CCCl)cc1" . Reported normalized growth?
0.985

Item under review: C=C[C@@](C)(O)CCC1C(=C)CCC2[C@@](C)(CO)CCC[C@]12C (stereo partly specified) . Reported normalized growth?
1.06

----------
- Assay Name: chemical genetic growth profiling, strain panel (AID 1159580);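 also: tested at 20 µM; growth read once vehicle control cultures reached saturation at 30 °C; 1 = growth at the plate median or of vehicle wells; lower values mean less growth of the strain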
- Study Conditions: S. cerevisiae deletion strains, growth OD, locus YHR027C, strain rpn1, hits give low values
Screen size: about 5,500 compounds; about 2,000 (36%) were called active. Inconclusive results (about 18%) are left out. The list shows a part of the results.
Answer each item with its documented normalized growth.

Item under review: C=C[C@@](C)(O)CCC1C(=C)C[C@H](OC(C)=O)C2C(C)(C)CCCC12C (stereo partly drawn) . Reported normalized growth?
1.04 (inactive)

Item under review: COC(=O)C[C@H]1C2(C)CC34OC5(C)O[C@@]6([C@H](OC(C)=O)C(OC(C)=O)[C@]7(C)C(/C(=C(/O)C(C)C)C(=O)O[C@H]7c7ccoc7)[C@@]6(O5)[C@H](OC(C)=O)[C@@]3(O)C2OC(=O)C(C)C)[C@]14C (stereo partly drawn) . Reported normalized growth?
1.02 (inactive)

Item under review: CN1C2CCC1CC(OC(c1ccccc1)c1ccccc1N)C2 (stereo not drawn) . Reported normalized growth?
0.999 (inactive)
